B1: Cold shock protein CspB, residues 1 to 66; numbered along this chain, P41016 (parent)
chain: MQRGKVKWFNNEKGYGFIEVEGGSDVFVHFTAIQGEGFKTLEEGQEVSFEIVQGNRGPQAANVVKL

- Variants of: B1
- assay.protocol: abundance fitness (aPCA) (normalised: wild type 0, dead -1); higher = more abundant; growth selection in yeast, the domain comes from the species named
- test.conditions: Bacillus caldolyticus
property: abundance fitness
Reply with just the number.

Would you kindly share the measured abundance fitness for `M1L` ?
-0.044

Could you share which abundance fitness value was measured for `F30A` ?
-0.035

// lookup abundance fitness for `M1G`
-0.064

Requested read-out: abundance fitness. Entry: `E19A`
0.05

# get_value(readout='abundance fitness', item= `W8C` )
-0.046

// query abundance fitness value for entry `M1D`
-0.086

Would you kindly share the measured abundance fitness for `G16K` ?
-1.08

Fill in: abundance fitness of `A32C` is ___
-0.083

Dear colleague, I am looking for the recorded abundance fitness of the following variant: `Q34S`
-0.003

# input variant: `G37F` ; wanted: its abundance fitness
-0.153

What measured abundance fitness goes with `Q2I` ?
0.028

If you can, please state the reported abundance fitness value of `G22R` .
-0.011

Find the recorded abundance fitness belonging to `G14K` and report it.
-0.06

Looking for the measured abundance fitness of `S24D` , can you help?
-0.002

Sample `F38R` — what was its abundance fitness?
-0.041

I have this variant here, `V6A` , and I need its recorded abundance fitness.
-0.088

GET /values?readout=abundance fitness&item= `E12T`
0.034

Given the variant `G35W` , what is its reported abundance fitness?
-0.134

Query (variant): `E36C` ; field requested: abundance fitness
-0.042

Look up abundance fitness for this variant: `L41P`
-0.46

Give its abundance fitness value. Item: `F27E`
-0.183

Requested read-out: abundance fitness. Entry: `K39P`
-0.149

Consider the variant shown here: `D25Y` What is its recorded abundance fitness?
-0.231

Look up abundance fitness: `E36R`
0.006

Entry under review: `M1W` . Reported abundance fitness?
-0.086

What does the data say about its abundance fitness? Entry: `F38N`
0.004

Which abundance fitness is reported for this variant? `G22T`
0.025

What abundance fitness value was documented for this variant, `E21D` ?
-0.028

Using the record for `D25A` , report its abundance fitness.
-0.113

So what's the measured abundance fitness for this one? `K5H`
0.005

I'd like to know its abundance fitness. The variant in question is `I33W`
-0.462

I am curious: what abundance fitness value has been reported for `Q45C` ?
-0.031

abundance fitness lookup needed for `A32L` , thanks.
-0.472

What abundance fitness value was documented for this variant, `G22M` ?
-0.01

Could you share which abundance fitness value was measured for `V6P` ?
-0.801

Would you kindly share the measured abundance fitness for `Q2R` ?
-0.006

# input variant: `G4E` ; wanted: its abundance fitness
-0.717

Value lookup for abundance fitness; key = `G44M`
-0.043

Can you share its abundance fitness? I mean this variant: `N10A`
-0.047

Which measured abundance fitness value corresponds to `T31E` ?
-0.087

Fill in: abundance fitness of `E12Y` is ___
0.016

Requested read-out: abundance fitness. Entry: `T31D`
-0.141

I am curious: what abundance fitness value has been reported for `I18G` ?
-1.07

GET /values?readout=abundance fitness&item= `G37M`
-0.117

Quick one: abundance fitness of `Q2F` ?
0.048

GET /values?readout=abundance fitness&item= `H29T`
-0.28

Recorded abundance fitness for `F30G` , please?
-0.089

What value of abundance fitness has been recorded for this entry: `T31S`
-0.011

Quick one: abundance fitness for `E46C` ?
-0.046

Entry under review: `F30Q` . Reported abundance fitness?
-0.025

Looking for the measured abundance fitness of `F27H` , can you help?
-0.075

Look up abundance fitness for this variant: `H29L`
-0.48

// query abundance fitness value for entry `L41M`
-0.01

Which abundance fitness reading was recorded for the variant `K39I` ?
-0.133

Tell me the measured abundance fitness of `G22L` , please.
-0.012

Quick one: abundance fitness for `E46P` ?
-0.023

What value of measured abundance fitness is listed for `K13R` ?
-0.007

Sample `G44F` — what was its abundance fitness?
-0.126

Quick one: abundance fitness of `G14S` ?
-0.123

Form field: reported abundance fitness of `F38M`
-0.075

Reported abundance fitness for `T40P` : what is it?
-0.227

Query: abundance fitness; subject: `V6S`
-0.324

// returns reported abundance fitness for input `G22F`
-0.016

Any idea what abundance fitness was measured for `K39G` ?
-0.154

I'd like to know its abundance fitness. The variant in question is `G37H`
-0.036

State the recorded abundance fitness for this entry: `G14Q`
-0.196

# lookup: abundance fitness of `K5N`
-0.029

Sample `F17N` — what was its abundance fitness?
-0.171

Sample `N10S` — what was its abundance fitness?
0.01

Using the record for `F17R` , report its abundance fitness.
-0.132

Fill in the blank: the reported abundance fitness of `K7E` is ____.
-0.225

// lookup abundance fitness for `Q45A`
0.021

So what does the record say about abundance fitness for `Q34P` ?
-0.062

May I ask what abundance fitness has been recorded for `E12P` ?
0.036

Value lookup for abundance fitness; key = `Q2S`
-0.034

Quick one: abundance fitness of `G44D` ?
0.019

Suppose we examine the variant `K5Q` ; what abundance fitness value has been reported?
-0.056

What abundance fitness value was documented for this variant, `Q2D` ?
-0.036

Which abundance fitness reading was recorded for the variant `N11R` ?
-0.017

Name the recorded abundance fitness for `E46S` .
0.015

I'd like to know its abundance fitness. The variant in question is `E12A`
0.036

State the recorded abundance fitness for this entry: `I33K`
-0.456

// lookup abundance fitness for `L41F`
-0.199

Query: abundance fitness; subject: `A32F`
-0.129

Look at this variant and give its reported abundance fitness. `N11H`
-0.027

Look up abundance fitness for this variant: `G35V`
-0.033

If you can, please state the reported abundance fitness value of `H29R` .
-0.281

So what's the measured abundance fitness for this one? `F9H`
-0.567

For the variant `V6F` , what abundance fitness is on record?
-0.622

Data request, read-out abundance fitness, for `E42T`
-0.011

What value of measured abundance fitness is listed for `E46L` ?
0.014
